Measured IC50 (nM), ADM-stimulated CLR/RAMP2 arrestin assay of individual entries
- Tgt: CLR/RAMP2 receptor (UniProt Q16602 23-461; O60895 43-175, limits assumed)
- Sequence (Q16602 23-461 limits assumed, chain 1 of 2): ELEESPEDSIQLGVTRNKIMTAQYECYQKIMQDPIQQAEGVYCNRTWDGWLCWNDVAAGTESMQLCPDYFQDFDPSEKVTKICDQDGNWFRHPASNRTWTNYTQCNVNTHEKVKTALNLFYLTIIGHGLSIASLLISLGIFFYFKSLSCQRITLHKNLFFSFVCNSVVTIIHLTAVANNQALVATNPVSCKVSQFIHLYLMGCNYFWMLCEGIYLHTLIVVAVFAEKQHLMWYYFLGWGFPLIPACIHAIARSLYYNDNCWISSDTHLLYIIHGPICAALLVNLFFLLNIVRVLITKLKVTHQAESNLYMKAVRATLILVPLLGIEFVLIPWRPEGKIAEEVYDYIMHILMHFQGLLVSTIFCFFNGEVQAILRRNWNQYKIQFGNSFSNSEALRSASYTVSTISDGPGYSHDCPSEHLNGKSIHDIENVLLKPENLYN
- Sequence (O60895 43-175 limits assumed, chain 2 of 2): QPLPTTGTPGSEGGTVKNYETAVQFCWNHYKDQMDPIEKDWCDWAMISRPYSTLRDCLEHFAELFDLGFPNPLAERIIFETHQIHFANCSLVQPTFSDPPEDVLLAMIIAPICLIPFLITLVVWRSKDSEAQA
- Experiment Notes: cell-based or functional assay
Non-standard residues stand in square brackets, D forms with d. No end group written: not given here. *: point of attachment. Palmitoyl = CCCCCCCCCCCCCCCC(=O)*; AEEA = NCCOCCOCC(=O)O
Report as a plain number; the unit nM is understood.

Q. Which IC50 (nM), ADM-stimulated CLR/RAMP2 arrestin assay value is on record for Palmitoyl-KVQNLSHRLWQLMGPAGSAPVDPSSPHSY-NH2 [SEQ ID NO: 120] ?
A. 85

Q. Okay, and [AEEA]K(Palmitoyl)VQKLAHQIYSAPVDPSSPHSY-NH2 [SEQ ID NO: 114] ?
A. 146

Q. Okay, and Palmitoyl-KVQKLAHQISAPVDPSSPHSY-NH2 [SEQ ID NO: 123] ?
A. 50
